Origin of measurements: the MegaScale stability set (Tsuboyama et al. 2023)

B1: r16_88_TrROS_Hall (parent)
chain: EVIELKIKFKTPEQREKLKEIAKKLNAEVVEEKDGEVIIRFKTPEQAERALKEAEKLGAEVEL

- Variants of: B1
- measurement protocol: folding stability dG (cDNA display proteolysis); higher = more stable
- condition info: PBS, room temperature
The entries below come with measured folding stability dG values attached.
property measured: folding stability dG (kcal/mol)

[[record]]
mutation_string = "Q46A"
unit_spec = "kcal/mol"
readout_value = 4.28

[[record]]
mutation_string = "P44M"
unit_spec = "kcal/mol"
readout_value = 4.59

[[record]]
mutation_string = "E1F"
unit_spec = "kcal/mol"
readout_value = 4.33

[[record]]
mutation_string = "A59N"
unit_spec = "kcal/mol"
readout_value = 4.3

[[record]]
mutation_string = "E32S"
unit_spec = "kcal/mol"
readout_value = 4.48

[[record]]
mutation_string = "I3V"
unit_spec = "kcal/mol"
readout_value = 4.58

[[record]]
mutation_string = "L63I"
unit_spec = "kcal/mol"
readout_value = 4.22

[[record]]
mutation_string = "K23I"
unit_spec = "kcal/mol"
readout_value = 4.56

[[record]]
mutation_string = "L5G"
unit_spec = "kcal/mol"
readout_value = 4.02

[[record]]
mutation_string = "T11L"
unit_spec = "kcal/mol"
readout_value = 4.75

[[record]]
mutation_string = "E4F"
unit_spec = "kcal/mol"
readout_value = 4.76

[[record]]
mutation_string = "Q46V"
unit_spec = "kcal/mol"
readout_value = 4.38

[[record]]
mutation_string = "K56E"
unit_spec = "kcal/mol"
readout_value = 4.28

[[record]]
mutation_string = "E60K"
unit_spec = "kcal/mol"
readout_value = 4.38

[[record]]
mutation_string = "E36A"
unit_spec = "kcal/mol"
readout_value = 4.59

[[record]]
mutation_string = "K17A"
unit_spec = "kcal/mol"
readout_value = 4.54

[[record]]
mutation_string = "G58A"
unit_spec = "kcal/mol"
readout_value = 4.3

[[record]]
mutation_string = "K24E"
unit_spec = "kcal/mol"
readout_value = 4.43

[[record]]
mutation_string = "K10A"
unit_spec = "kcal/mol"
readout_value = 4.22

[[record]]
mutation_string = "E4D"
unit_spec = "kcal/mol"
readout_value = 4.4

[[record]]
mutation_string = "K42N"
unit_spec = "kcal/mol"
readout_value = 4.18

[[record]]
mutation_string = "A54V"
unit_spec = "kcal/mol"
readout_value = 4.43

